molecular target: rat μ-opioid receptor (rat, UniProt P33535 1-398); assay: radioligand binding
Sequence (P33535 whole entry): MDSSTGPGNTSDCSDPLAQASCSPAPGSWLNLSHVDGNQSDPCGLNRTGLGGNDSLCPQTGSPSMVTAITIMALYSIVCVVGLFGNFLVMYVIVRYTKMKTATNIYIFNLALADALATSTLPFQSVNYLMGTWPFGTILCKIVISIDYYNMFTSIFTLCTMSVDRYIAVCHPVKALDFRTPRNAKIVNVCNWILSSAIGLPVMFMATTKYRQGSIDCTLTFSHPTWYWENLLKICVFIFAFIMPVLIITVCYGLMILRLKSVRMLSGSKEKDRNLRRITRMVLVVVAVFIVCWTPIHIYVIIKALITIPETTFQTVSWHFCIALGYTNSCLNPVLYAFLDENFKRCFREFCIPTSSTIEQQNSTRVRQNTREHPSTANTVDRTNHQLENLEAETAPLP
Non-standard residues stand in square brackets, D forms with d. No end group written: not given here. *: point of attachment. NH(3,5-(CF3)2-benzyl) = FC(F)(F)c1cc(CN*)cc(C(F)(F)F)c1; βGlc = OC[C@H]1O[C@@H](*)[C@H](O)[C@@H](O)[C@@H]1O; Nle = CCCC[C@H](N)C(=O)O

{"columns": ["binder", "Ki [nM]"],
 "data": [
  ["Y[dA]GF[Nle]S(βGlc)LW-{NH(3,5-(CF3)2-benzyl)} [Tyr-D-Ala-Gly-Phe-Nle-Ser(Glc)-Leu-Trp-NH-3’,5’-Bzl(CF3)2]", 3400],
  ["Y[dA]GFS(βGlc)PLW-{NH(3,5-(CF3)2-benzyl)} [Tyr-D-Ala-Gly-Phe-Ser(Glc)-Pro-Leu-Trp-NH-3’,5’-Bzl(CF3)2]", 260],
  ["Y[dA]GF[Nle]PS(βGlc)W-{NH(3,5-(CF3)2-benzyl)} [Tyr-D-Ala-Gly-Phe-Nle-Pro-Ser(Glc)-Trp-NH-3’,5’-Bzl(CF3)2]", 8]
]}
